# Tested on: TK-10 renal
# assay-text: NCI tumour cell line growth inhibition, 48 h
Please provide measured TGI for the entries that follow.

(Q) Give me measured TGI, please, for this compound: COC1=CC(=O)C(O)=C(C[C@@]2(C)[C@@H]3CCC[C@H](COC(=O)CCCCCNC(=O)OC(C)(C)C)[C@@]3(C)CC[C@@H]2C)C1=O
(A) > 10 µM

(Q) Give me measured TGI, please, for this compound: CC1C=C(OC(=O)c2ccccc2)C(=O)C(n2cc(F)c(=O)n(C(=O)c3ccccc3)c2=O)O1 (configuration not stated)
(A) > 100 µM

(Q) Give me measured TGI, please, for this compound: CCOP(=O)(CC(=O)C1=C(O)C(CCCNC(=O)OC(C)(C)C)N(Cc2ccc(OC)c(OC)c2)C1=O)OCC (configuration not stated)
(A) > 100 µM

(Q) Give me measured TGI, please, for this compound: COc1cc2c3c(n(CCCN)c(=O)c2cc1OC)-c1ccc(F)cc1C3=O
(A) 30.4 µM

(Q) Give me measured TGI, please, for this compound: COc1ccc2nc(NCCCNCCO)c3sc4ccc(F)cc4c(=O)c3c2c1
(A) 3.3 µM

(Q) Give me measured TGI, please, for this compound: OC(c1cccs1)c1cc2ccccc2s1 (configuration not stated)
(A) > 10 µM

(Q) Give me measured TGI, please, for this compound: Cc1cc(S(=O)(=O)Nc2nc3ccsc3c(=O)n2Cc2ccco2)c(S)cc1Cl
(A) > 100 µM

(Q) Give me measured TGI, please, for this compound: Clc1ccc(OCc2nnc3sc(-c4ccc(-c5ccc(Cl)cc5Cl)o4)nn23)c(Cl)c1
(A) 39.8 µM

(Q) Give me measured TGI, please, for this compound: COc1cc2cc(Oc3ccc(NC(=O)Nc4ccccc4)cc3)c(C)nc2cc1OCCN1CCCCC1
(A) 17.3 µM

(Q) Give me measured TGI, please, for this compound: CCC(C(=O)[O-])C(=O)[O-].CCC(C(=O)[O-])C(=O)[O-].N.N.NCCCCCN.[Pt+4].[Pt+4]
(A) > 100 µM

(Q) Give me measured TGI, please, for this compound: O=C(O)c1c(CC(Cc2ccc3c(c2)CCCC3)C(=O)O)ccc2c1CCCC2 (configuration not stated)
(A) > 100 µM

(Q) Give me measured TGI, please, for this compound: CC1=C(C2=C(C)C(=O)C(=O)c3cc(C)ccc32)c2ccc(C)cc2C(=O)C1=O
(A) 1.2 µM

(Q) Give me measured TGI, please, for this compound: CC1=C/C(=N/N2C(=O)/C(=C/c3ccc(Cl)cc3)N=C2c2ccccc2)CC(C)(C)C1
(A) > 100 µM

(Q) Give me measured TGI, please, for this compound: COc1cc(/C=C/C(=O)c2cc(F)c(Cl)cc2Cl)cc(OC)c1OC
(A) > 100 µM

(Q) Give me measured TGI, please, for this compound: N#Cc1c[nH]n2ccnc12
(A) > 100 µM

(Q) Give me measured TGI, please, for this compound: N=c1c2c3n(c4c(=O)n(-c5ccccc5)c(=S)n(c(=O)n1-c1ccccc1)c24)CCCCC3
(A) > 100 µM

(Q) Give me measured TGI, please, for this compound: O=C1c2ccccc2S(=O)(=O)N1CSC(=S)N1CCCC1
(A) > 100 µM

(Q) Give me measured TGI, please, for this compound: CCCCCCOc1ccc(NC2=C(Cl)C(=O)c3cccnc3C2=O)cc1
(A) 9.49 µM

(Q) Give me measured TGI, please, for this compound: COC(=O)C1=C(C(=O)OC)C23C=CC=CC24C(C(=O)OC)=C(C(=O)OC)C4C1C3 (configuration not stated)
(A) > 100 µM

(Q) Give me measured TGI, please, for this compound: CC(=O)Oc1ccn2nc(C)c(Br)c2c1Br
(A) > 94.8 µM

(Q) Give me measured TGI, please, for this compound: CC(SC(=S)N1CCCCC1)C(=O)Nc1nnc(-c2ccc(Cl)cc2)o1 (configuration not stated)
(A) > 100 µM

(Q) Give me measured TGI, please, for this compound: CCOC(OCC)C(CC)[Se]c1ccccc1[N+](=O)[O-] (configuration not stated)
(A) > 100 µM
